Could you please report measured hERG current change (%, negative = inhibition) at 10uM for the items listed next?
biological target: human ether-à-go-go-related gene (hERG) potassium channel (human); test: primary screen, population patch clamp on CHO cells stably expressing hERG; higher = less effect of the substance;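 further: peak tail current of the secondary pulse compared with the same well before compound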
Sequence (Q12809 whole entry, looked up): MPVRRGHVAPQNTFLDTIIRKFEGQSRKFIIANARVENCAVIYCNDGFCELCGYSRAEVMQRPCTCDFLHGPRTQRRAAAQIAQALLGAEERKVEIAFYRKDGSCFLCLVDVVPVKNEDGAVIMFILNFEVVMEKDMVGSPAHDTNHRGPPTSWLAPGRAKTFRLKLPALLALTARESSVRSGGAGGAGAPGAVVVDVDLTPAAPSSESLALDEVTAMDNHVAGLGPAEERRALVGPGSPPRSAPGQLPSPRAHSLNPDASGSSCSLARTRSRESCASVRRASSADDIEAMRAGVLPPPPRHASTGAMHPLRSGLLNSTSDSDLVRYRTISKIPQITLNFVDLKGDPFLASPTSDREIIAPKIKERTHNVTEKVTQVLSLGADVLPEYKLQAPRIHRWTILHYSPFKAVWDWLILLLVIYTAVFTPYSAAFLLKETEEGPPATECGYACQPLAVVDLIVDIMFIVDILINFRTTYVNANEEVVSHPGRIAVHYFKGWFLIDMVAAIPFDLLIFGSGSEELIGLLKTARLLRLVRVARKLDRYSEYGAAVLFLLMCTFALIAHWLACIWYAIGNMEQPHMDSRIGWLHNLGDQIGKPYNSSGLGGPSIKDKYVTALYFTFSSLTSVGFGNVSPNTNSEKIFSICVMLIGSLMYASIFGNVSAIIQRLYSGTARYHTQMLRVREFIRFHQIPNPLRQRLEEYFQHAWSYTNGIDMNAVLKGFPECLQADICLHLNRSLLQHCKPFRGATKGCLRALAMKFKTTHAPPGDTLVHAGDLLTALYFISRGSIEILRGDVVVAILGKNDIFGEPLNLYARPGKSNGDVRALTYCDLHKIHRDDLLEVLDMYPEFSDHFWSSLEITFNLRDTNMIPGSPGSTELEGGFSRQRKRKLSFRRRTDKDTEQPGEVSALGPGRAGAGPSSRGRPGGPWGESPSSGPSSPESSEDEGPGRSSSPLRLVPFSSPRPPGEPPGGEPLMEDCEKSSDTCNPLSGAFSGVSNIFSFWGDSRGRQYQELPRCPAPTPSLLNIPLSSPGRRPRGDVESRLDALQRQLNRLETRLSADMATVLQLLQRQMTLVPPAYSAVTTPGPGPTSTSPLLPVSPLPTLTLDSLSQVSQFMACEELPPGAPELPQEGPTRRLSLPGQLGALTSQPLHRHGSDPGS
In all, about 310,000 compounds went through this assay and about 14,000 (4.5%) showed an effect of 50% or more. The effect is printed as a negative number. What follows is part of a selection rich in strong results, with near analogues and random picks from the rest.
Reply numerically in %, unit not repeated.

I have this compound here, COCCn1c(N)c(N(Cc2ccccc2)C(=O)c2ccc(-c3ccc(Cl)cc3)o2)c(=O)[nH]c1=O , and I need its recorded hERG current change (%, negative = inhibition) at 10uM.
-45.5

For Br.CCCCn1c(=N)n(CC(=O)O)c2ccccc21 then?
22.4

Okay, and CCCCC(OC(=O)c1ccco1)C(=O)NCc1ccc(C)cc1 (stereo not drawn) ?
-0.428

How about CCN(CC)S(=O)(=O)c1ccc(C(=O)NC2CN3CCC2CC3)cc1 (stereo not drawn) ?
25.6

Again, but for O=S(=O)(NCc1ccccc1)NCc1ccccc1F
7.69

Quick one: COC(=O)Nc1ccc(S(=O)(=O)N2CCC(C(=O)N(C)C3CCCCC3)CC2)cc1
9.22

Also, Br.C=CCn1c(=N)n(CC(=O)c2ccccc2)c2ccccc21 please.
-23.9

Cc1ccccc1C1NC(=S)NC2=C1C(=O)CC(C)(C)C2 (stereo not drawn) ?
18.5

Let us now turn to CCCOc1cc(C)c(S(=O)(=O)NC2CC(C)(C)NC(C)(C)C2)cc1C
-15
